Entry source: patent US6624196B2

- test_target: MMP-2CD (gelatinase A catalytic domain) (Homo sapiens, UniProt P08253, DEL220-393)
- Construct: Experiments were carried out with the catalytic domains of the proteinases
- Sequence (P08253 with tags, fused parts or gaps DEL220-393): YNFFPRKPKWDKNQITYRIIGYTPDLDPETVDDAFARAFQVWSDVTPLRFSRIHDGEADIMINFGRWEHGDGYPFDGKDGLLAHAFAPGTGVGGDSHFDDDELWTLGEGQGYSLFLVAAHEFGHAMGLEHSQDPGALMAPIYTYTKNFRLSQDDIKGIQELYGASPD
- test_description: Thiopeptolide substrate assay, gelatinase A catalytic domain
- Type: biochemical
- experimental_setup: 10 μM concentration of inhibitor (footnote a, Examples 8 through 25); read-out: % inhibition of the enzyme MMP-2CD
- Method: Experiments were carried out with the catalytic domains of the proteinases. […]
observation_type: inhibition at 10 µM (%)

Example results:
CCCCCCCC(=O)Nc1ccc(C(=O)CCC(=O)O)cc1 [Example 10]: 79
O=C(O)CCC(=O)c1ccc(NC(=O)c2ccc(Cl)c([N+](=O)[O-])c2)cc1 [Example 18]: 82
CCC(=O)Nc1ccc(C(=O)CCC(=O)O)cc1 [Example 11]: 46
O=C(O)CCC(=O)c1ccc(NC(=O)c2ccc(Br)cc2)cc1 [Example 20]: 93
O=C(O)CCC(=O)c1ccc(NC(=O)CCCc2ccc(Br)cc2)cc1 [Example 14]: 26

I = O=C(O)CCC(=O)c1ccc(NC(=O)c2ccc(Cl)cc2Cl)cc1 [Example 13]
II = O=C(O)CCC(=O)c1ccc(NC(=O)C=Cc2ccccc2)cc1 [Example 19]
## Input Could you tell me which of these two has the smaller inhibition at 10 µM figure? First: I Second: II // respond with label for picked entry
## Output I
(I: 26%, II: 86%)
